Tested on: OVCAR-5 ovarian
Assay: NCI tumour cell line growth inhibition, 48 h
Measured GI50 of individual entries
Outcome measure: GI50

> print(dat)
                                    compound           system  value.measured
 1  CS(=O)(=O)CCNCc1ccc(-c2ccc3ncnc(Nc4ccc(OCc5ccccc5)cc4)c3c2)o1  OVCAR-5 ovarian         6.51 µM
 2  CC/C=C\C[C@@H](O)C/C=C1/C(=O)C=C[C@H]1C/C=C\CCCC(=O)OC  OVCAR-5 ovarian         3.35 µM
 3           Cc1ccc2c(c1)Sc1c(ccc3ccccc13)N2  OVCAR-5 ovarian        > 100 µM
 4  O=C(CC1C(=O)NN(c2ccc(Br)cc2)C1=O)c1cc(O)ccc1O (stereo unspecified)  OVCAR-5 ovarian         34.7 µM
 5    COc1ccc2c(c1)CCCN2c1c2ccccc2nc2ccccc12  OVCAR-5 ovarian        0.544 µM
 6  CC[C@@]1(c2ccccc2)C2=C(CC(C)(C)CC2=O)Nc2[nH]ncc21  OVCAR-5 ovarian        > 100 µM
 7   CCCn1c(=S)sc2c1nc(C)n1c(Nc3ccccc3)nnc21  OVCAR-5 ovarian           21 µM
 8  CS(=O)(=O)c1ccc(-n2nc(C(F)(F)F)cc2OC2CCCC2)cc1  OVCAR-5 ovarian        > 100 µM
 9                         O=C(O)CCNC1CCCCC1  OVCAR-5 ovarian        > 100 µM
10        COc1ccc(C(=O)C#Cc2cnc(OC)nc2OC)cc1  OVCAR-5 ovarian        31100 µM
11  CCN(CC)CCCC(C)Nc1c2ccc(Cl)cc2nc2ccc(O)cc12 (stereo unspecified)  OVCAR-5 ovarian         2.21 µM

* * *

System: MCF7 breast
Experiment: NCI tumour cell line growth inhibition, 48 h
Outcome measure: TGI

> print(dat)
                                   compound  value.measured
1  COC(=O)CC(c1cn(S(=O)(=O)c2ccc(C)cc2)c2ccccc12)C1C[C@@H](C(=O)OC)N(C(=O)OC(C)(C)C)C1=O (stereo not given in full)        > 100 µM
2   Nc1nc(N(Cc2ccccc2)c2ccccc2)c2cn[nH]c2n1        > 100 µM
3  O=C(Nc1ccc(-c2nc(N3CCOCC3)c3cccn3n2)cc1)Nc1cccnc1         1.49 µM
4  CC1(C)C2CCC(CN)(C2)C1N (stereo not given)        > 100 µM
5  Cc1cc(-c2cnn3c(NCC4CC(C)(O)C4)cc(Oc4cccnc4)nc23)ccc1C(=O)NC1CC1 (stereo not given)        > 100 µM

* * *

System: HOP-62 NSCLC
Experiment: NCI tumour cell line growth inhibition, 48 h
Outcome measure: TGI

> print(dat)
                                    molecule  outcome.measure  value.measured
 1             NC12CC3CC(C1)CC(C(=O)O)(C3)C2              TGI        > 100 µM
 2  CCCC/C=C/C/C=C/CCCCCCCCC(=O)OCC1CCCN2CCCCC12 (stereo unspecified)              TGI        > 100 µM
 3  Cc1ccc(NC(=O)CC(=O)n2nc(C)c(N=Nc3ccccc3C(=O)O)c2C)cc1              TGI        > 100 µM
 4  CS(=O)(=O)CCNCc1ccc(-c2ccc3ncnc(Nc4ccc(OCc5ccccc5)cc4)c3c2)o1              TGI         > 25 µM
 5          O=c1[nH]nc(-c2ccccc2)n1-c1ccncc1              TGI        > 100 µM
 6              Nc1cccc(S(=O)(=O)NCC(=O)O)c1              TGI        > 100 µM
 7           COc1ccccc1NC(=S)Nc1cc(C)cc(C)n1              TGI        > 100 µM
 8  Cc1c(C)c(C)n(C2OC(CO)C(O)C(O)C2O)c(=S)c1C#N (stereo unspecified)              TGI        > 100 µM
 9         COc1cc2ncnc(Nc3cccc(Cl)c3)c2cc1OC              TGI         58.7 µM
10   O=C1Nc2ccccc2C1(c1ccc(O)cc1)c1ccc(O)cc1              TGI         53.1 µM
11        COc1ccc(C(=O)C#Cc2cnc(OC)nc2OC)cc1              TGI         30.7 µM

* * *

Tested on: TK-10 renal
Assay: NCI tumour cell line growth inhibition, 48 h; in the data active means GI50 below about 0.43 µM; inactive means the rest
Outcomes: active, inactive

> print(dat)
                                    compound  label.value
 1  Cc1cc2c(cc1Cl)SC1=NN(C)S(=O)N1S2(=O)=O (stereo unspecified)     inactive
 2  O=c1cc(-c2ccccc2)oc2cc(OC/C(=N/O)c3ccccc3)ccc12     inactive
 3  CCCCCCCCn1ccc2cc(NC(=O)Cn3cc(CN4CCCC4)nn3)ccc21     inactive
 4  C#CCNC(=O)c1cccc2c1cc(C)n2-c1nc2c(c(NCc3ccccc3)n1)CCCC2       active
 5  Cc1ccc(-c2nc3nc(-c4ccccc4)nc(N4CCCNCC4)c3o2)cc1     inactive
 6  COc1cc[nH]c1/C=C1\C(=O)Nc2ccc(F)c(C#CC3(O)CCNCC3)c21       active
 7   Nc1nc(N(Cc2ccccc2)c2ccccc2)c2cn[nH]c2n1     inactive
 8                         O=C(O)CCNC1CCCCC1     inactive
 9  Nc1nc2c(nnn2C2CC(O)C(CO)O2)c(=O)[nH]1 (stereo unspecified)     inactive
10  CS(=O)(=O)CCNCc1ccc(-c2ccc3ncnc(Nc4ccc(OCc5ccccc5)cc4)c3c2)o1       active
11  CC[C@@]1(c2ccccc2)C2=C(CC(C)(C)CC2=O)Nc2[nH]ncc21     inactive

* * *

System: COLO 205 colon
Assay: NCI tumour cell line growth inhibition, 48 h
Outcome measure: TGI

> print(dat)
                                    compound  value.measured
 1           c1ccc2c(c1)CC1=C(O2)c2ccccc2OC1         38.3 µM
 2  COc1cc(Nc2nc3ccccc3nc2-c2cccs2)cc(OC)c1OC         > 10 µM
 3  COc1ccc2c(c1)C(=O)c1c-2n(CCCn2ccnc2)c(=O)c2cc([N+](=O)[O-])ccc12       > 42.8 µM
 4  CC(=O)c1sc2c(c1OC(=O)c1ccco1)c(=O)n(-c1ccccc1)c(=S)n2-c1ccccc1         37.9 µM
 5  O=[N+]([O-])c1ccc2c(c1)S(=O)(=O)N1Cc3ccccc3CCN21        > 100 µM
 6           CCOC(=O)N(NC(=O)NC(C)C)c1ccccc1        > 100 µM
 7  CC(C)(C)C(=O)OCOP(=O)(OCOC(=O)C(C)(C)C)OCC1OC(n2ccc(=O)[nH]c2=O)C(N=[N+]=[N-])C1O (stereo unspecified)         13.5 µM
 8  Cc1cc(N(CCC#N)CCC#N)ccc1/C=C1\N=C(c2cc([N+](=O)[O-])ccc2Cl)N(c2cccc(Cl)c2)C1=O        > 100 µM
 9  O=C(CC1(O)C(=O)Nc2c(Cl)ccc(Cl)c21)c1ccc(F)cc1 (stereo unspecified)        > 100 µM
10  CCC[CH2][Sn]1([CH2]CCC)[O]C(=O)CN=Cc2c(ccc3ccccc23)[O]1         1.47 µM
11                O=c1cc(N2CCNCC2)nc2ccccn12        > 100 µM
12                O=P1(O)c2ccccc2CCc2ccccc21        > 100 µM
13       CCOC(=O)c1c(NC(=O)c2cccs2)sc2c1CCC2        > 100 µM
14  COc1cc(/C=C2/SC(c3ccccc3)N(c3ccccc3Cl)C2=O)cc(OC)c1OC (stereo unspecified)         95.5 µM
15     COc1ccc2nc3c(C(=O)NCCN(C)C)cccc3nc2c1         22.9 µM
16  CC(SC(=S)N1CCOCC1)c1cc2oc(=O)n(C)c2cc1Cl (stereo unspecified)        > 100 µM
17  COc1ccc(-c2onc(N)c2-c2cc(OC)c3c(c2)OCO3)cc1         6.86 µM
18  CC[C@@]1(c2ccccc2)C2=C(CC(C)(C)CC2=O)Nc2[nH]ncc21        > 100 µM
19   Nc1nc(N(Cc2ccccc2)c2ccccc2)c2cn[nH]c2n1        > 100 µM
20              Nc1cccc(S(=O)(=O)NCC(=O)O)c1        > 100 µM
21  NC(=O)NS(=O)(=O)c1ccc(N2N=C(C(F)(F)F)CC2c2cc(C(F)(F)F)cc(C(F)(F)F)c2)cc1 (stereo unspecified)           12 µM
